# System: MDA-MB-453
# assay-name: normalised viability (% of control), CellTiter-Blue; higher = more viable cells (about 100 = DMSO control)
# measurement-conditions: incubation time: 72 h
Kindly apply the following: label 1 if normalised viability is less than 60%, label 0 in every other case.

Lab note: normalised viability threshold 60%. Does this molecule come in strictly under it? Clc1ccc(C(c2ccccc2Cl)C(Cl)Cl)cc1 (configuration not stated) [Mitotane] (3000 nM)
label 0

Lab note: normalised viability threshold 60%. Does this molecule come in strictly under it? CC[C@]1(O)C[C@@H]2CN(CCc3c([nH]c4ccccc34)[C@@](C(=O)OC)(c3cc4c(cc3OC)N(C)[C@H]3[C@@](O)(C(=O)OC)[C@H](OC(C)=O)[C@]5(CC)C=CCN6CC[C@]43[C@@H]65)C2)C1 [Vinblastine] (300 nM)
label 1

Lab note: normalised viability threshold 60%. Does this molecule come in strictly under it? N#CC[C@H](C1CCCC1)n1cc(-c2ncnc3[nH]ccc23)cn1 [Ruxolitinib] (3000 nM)
label 0

Lab note: normalised viability threshold 60%. Does this molecule come in strictly under it? Nc1ccn([C@@H]2O[C@H](CO)[C@@H](O)[C@@H]2O)c(=O)n1 [Cytarabine] (3000 nM)
label 0

Lab note: normalised viability threshold 60%. Does this molecule come in strictly under it? C[C@]1(c2nc3c(C(N)=O)cccc3[nH]2)CCCN1 [Veliparib] (3000 nM)
label 0

Lab note: normalised viability threshold 60%. Does this molecule come in strictly under it? CS(=O)(=O)c1ccc(C(=O)Nc2ccc(Cl)c(-c3ccccn3)c2)c(Cl)c1 [Vismodegib] (3000 nM)
label 0

Lab note: normalised viability threshold 60%. Does this molecule come in strictly under it? CN1CC[C@H](c2c(O)cc(O)c3c(=O)cc(-c4ccccc4Cl)oc23)[C@H](O)C1 [Alvocidib] (3000 nM)
label 1

###

# Tested on: SK-BR-3
# measurement-conditions: 72 h
metric-name: EC50, CellTiter-Blue viability (nM)
Write the number in nM without appending the unit.

Sample CN(C)C/C=C/C(=O)Nc1cc2c(Nc3ccc(F)c(Cl)c3)ncnc2cc1O[C@H]1CCOC1 — what was its EC50, CellTiter-Blue viability?
7.53

Sample Nc1ccn([C@@H]2O[C@H](CO)[C@@H](O)[C@@H]2O)c(=O)n1 — what was its EC50, CellTiter-Blue viability?
487

Sample CO[C@H]1C[C@@H]2CC[C@@H](C)[C@@](O)(O2)C(=O)C(=O)N2CCCC[C@H]2C(=O)O[C@H]([C@H](C)C[C@@H]2CC[C@@H](OC(=O)C(C)(CO)CO)[C@H](OC)C2)CC(=O)[C@H](C)/C=C(\C)[C@@H](O)[C@@H](OC)C(=O)[C@H](C)C[C@H](C)/C=C/C=C/C=C/1C — what was its EC50, CellTiter-Blue viability?
0.92

Sample Cc1c2oc3c(C)ccc(C(=O)N[C@@H]4C(=O)N[C@H](C(C)C)C(=O)N5CCC[C@H]5C(=O)N(C)CC(=O)N(C)[C@@H](C(C)C)C(=O)O[C@@H]4C)c3nc-2c(C(=O)N[C@@H]2C(=O)N[C@H](C(C)C)C(=O)N3CCC[C@H]3C(=O)N(C)CC(=O)N(C)[C@@H](C(C)C)C(=O)O[C@@H]2C)c(N)c1=O — what was its EC50, CellTiter-Blue viability?
2.91

###

# System: SK-BR-3
# assay-name: normalised viability (% of control), CellTiter-Blue; higher = more viable cells (about 100 = DMSO control)
# measurement-conditions: 10 nM; incubation time: 72 h
metric-name: normalised viability (%)
Write the number in % without appending the unit.

Value wanted: normalised viability (SK-BR-3) of entry CN1CC[C@H](c2c(O)cc(O)c3c(=O)cc(-c4ccccc4Cl)oc23)[C@H](O)C1
88.5

Value wanted: normalised viability (SK-BR-3) of entry N#CC[C@H](C1CCCC1)n1cc(-c2ncnc3[nH]ccc23)cn1
95.4

Value wanted: normalised viability (SK-BR-3) of entry COc1cccc2cc(-c3nc([C@H]4CC[C@H](C(=O)O)CC4)n4ncnc(N)c34)[nH]c12
93.7

###

Provide the reported EC50, CellTiter-Glo of each item.
# Tested on: MCF-10A
# measurement-conditions: 72 h
Write the number in nM without appending the unit.

Value wanted: EC50, CellTiter-Glo (MCF-10A) of entry COc1cccc2cc(-c3nc([C@H]4CC[C@H](C(=O)O)CC4)n4ncnc(N)c34)[nH]c12
4810

Value wanted: EC50, CellTiter-Glo (MCF-10A) of entry CN(C)C/C=C/C(=O)Nc1cc2c(Nc3ccc(F)c(Cl)c3)ncnc2cc1O[C@H]1CCOC1
6.58

Value wanted: EC50, CellTiter-Glo (MCF-10A) of entry CN1CC[C@H](c2c(O)cc(O)c3c(=O)cc(-c4ccccc4Cl)oc23)[C@H](O)C1
368

Value wanted: EC50, CellTiter-Glo (MCF-10A) of entry Cc1c2oc3c(C)ccc(C(=O)N[C@@H]4C(=O)N[C@H](C(C)C)C(=O)N5CCC[C@H]5C(=O)N(C)CC(=O)N(C)[C@@H](C(C)C)C(=O)O[C@@H]4C)c3nc-2c(C(=O)N[C@@H]2C(=O)N[C@H](C(C)C)C(=O)N3CCC[C@H]3C(=O)N(C)CC(=O)N(C)[C@@H](C(C)C)C(=O)O[C@@H]2C)c(N)c1=O
8.54

Value wanted: EC50, CellTiter-Glo (MCF-10A) of entry CC[C@]1(O)C[C@@H]2CN(CCc3c([nH]c4ccccc34)[C@@](C(=O)OC)(c3cc4c(cc3OC)N(C)[C@H]3[C@@](O)(C(=O)OC)[C@H](OC(C)=O)[C@]5(CC)C=CCN6CC[C@]43[C@@H]65)C2)C1
2.59

###

# Test system: MFM-223
# assay-name: normalised viability (% of control), CellTiter-Blue; higher = more viable cells (about 100 = DMSO control)
# measurement-conditions: 100 nM; incubation time: 72 h
Provide the reported normalised viability of each item.
Write the number in % without appending the unit.

Sample CN(C)C/C=C/C(=O)Nc1cc2c(Nc3ccc(F)c(Cl)c3)ncnc2cc1O[C@H]1CCOC1 [Afatinib] — what was its normalised viability?
84.8

Sample C[C@]1(c2nc3c(C(N)=O)cccc3[nH]2)CCCN1 [Veliparib] — what was its normalised viability?
89.9

Sample N#CC[C@H](C1CCCC1)n1cc(-c2ncnc3[nH]ccc23)cn1 [Ruxolitinib] — what was its normalised viability?
93.2

Sample COc1cccc2cc(-c3nc([C@H]4CC[C@H](C(=O)O)CC4)n4ncnc(N)c34)[nH]c12 [OSI-027] — what was its normalised viability?
73.7

Sample Clc1ccc(C(c2ccccc2Cl)C(Cl)Cl)cc1 (stereo not given) [Mitotane] — what was its normalised viability?
93.9

###

Provide the reported normalised response of each item.
# Tested on: CAL-85-1
# assay-name: normalised response (% of control), CellTox Green; higher = less cell death (100 = DMSO, 0 = benzethonium chloride kill control)
# measurement-conditions: incubation time: 72 h
Write the number in % without appending the unit.

Sample CN1CC[C@H](c2c(O)cc(O)c3c(=O)cc(-c4ccccc4Cl)oc23)[C@H](O)C1 [Alvocidib] (10000 nM) — what was its normalised response?
-9.96

Sample S=c1[nH]cnc2nc[nH]c12 [Mercaptopurine] (100 nM) — what was its normalised response?
108

Sample CN1CC[C@H](c2c(O)cc(O)c3c(=O)cc(-c4ccccc4Cl)oc23)[C@H](O)C1 [Alvocidib] (1000 nM) — what was its normalised response?
24.9

Sample COc1cccc2c1C(=O)c1c(O)c3c(c(O)c1C2=O)C[C@@](O)(C(=O)CO)C[C@@H]3O[C@H]1C[C@H](N)[C@H](O)[C@H](C)O1 [Doxorubicin] (1000 nM) — what was its normalised response?
77.5

Sample Nc1ccn([C@@H]2O[C@H](CO)[C@@H](O)[C@@H]2O)c(=O)n1 [Cytarabine] (1000 nM) — what was its normalised response?
109

Sample N#CC[C@H](C1CCCC1)n1cc(-c2ncnc3[nH]ccc23)cn1 [Ruxolitinib] (1000 nM) — what was its normalised response?
108

Sample COc1cccc2cc(-c3nc([C@H]4CC[C@H](C(=O)O)CC4)n4ncnc(N)c34)[nH]c12 [OSI-027] (1000 nM) — what was its normalised response?
93.6

Sample CS(=O)(=O)c1ccc(C(=O)Nc2ccc(Cl)c(-c3ccccn3)c2)c(Cl)c1 [Vismodegib] (100 nM) — what was its normalised response?
105

Sample COc1cccc2cc(-c3nc([C@H]4CC[C@H](C(=O)O)CC4)n4ncnc(N)c34)[nH]c12 [OSI-027] (100 nM) — what was its normalised response?
95.9

Sample COc1cccc2c1C(=O)c1c(O)c3c(c(O)c1C2=O)C[C@@](O)(C(=O)CO)C[C@@H]3O[C@H]1C[C@H](N)[C@H](O)[C@H](C)O1 [Doxorubicin] (10 nM) — what was its normalised response?
100

Sample O=C(c1ccc(C(=O)N2CCC(N3CCCC3)CC2)c(Nc2ccccc2)c1)N1CCC(N2CCCC2)CC1 [UNC1215] (300 nM) — what was its normalised response?
98.7

Sample COc1cccc2cc(-c3nc([C@H]4CC[C@H](C(=O)O)CC4)n4ncnc(N)c34)[nH]c12 [OSI-027] (10000 nM) — what was its normalised response?
89.2

Sample C=CCNC1=C2C[C@@H](C)C[C@H](OC)[C@H](O)[C@@H](C)/C=C(\C)[C@H](OC(N)=O)[C@@H](OC)/C=C\C=C(/C)C(=O)NC(=CC1=O)C2=O [Tanespimycin] (10000 nM) — what was its normalised response?
75.6

Sample CC(=O)O[C@]1(C(C)=O)CC[C@H]2[C@@H]3C=C(C)C4=CC(=O)CC[C@]4(C)[C@H]3CC[C@@]21C [Megestrol acetate] (100 nM) — what was its normalised response?
103

Sample N#CC[C@H](C1CCCC1)n1cc(-c2ncnc3[nH]ccc23)cn1 [Ruxolitinib] (100 nM) — what was its normalised response?
97.7
